Data provenance is ChEMBL document CHEMBL4825722.

Biological target: Lysophosphatidic acid receptor 3 (Homo sapiens)
Sequence (Q9UBY5 whole entry): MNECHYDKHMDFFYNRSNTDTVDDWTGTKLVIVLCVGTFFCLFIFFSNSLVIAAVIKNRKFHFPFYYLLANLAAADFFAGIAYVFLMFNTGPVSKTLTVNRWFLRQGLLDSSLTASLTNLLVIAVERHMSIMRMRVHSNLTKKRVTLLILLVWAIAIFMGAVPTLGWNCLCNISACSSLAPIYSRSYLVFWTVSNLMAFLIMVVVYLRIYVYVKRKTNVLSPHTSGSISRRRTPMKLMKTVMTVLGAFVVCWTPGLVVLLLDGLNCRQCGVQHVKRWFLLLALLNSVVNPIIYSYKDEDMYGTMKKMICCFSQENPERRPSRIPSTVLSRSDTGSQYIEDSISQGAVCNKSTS
endpoint.label: IC50

Exercise: GET /values?readout=IC50&item= C[C@@H](c1ccc2ccc(O[C@H]3CC[C@@H](C(F)(F)F)CC3)c(C(F)(F)F)c2c1)N1C2CCC1CC(C(=O)O)C2 (stereo partly specified)
Key: > 10 µM

====

experiment: AUC (0 to 24 hrs) in C57BL/6 mouse brain at 10 mg/kg, po; assay type: ADME, organism-based; parameters: time < 24 hr, route oral, dose 10 mg/kg
endpoint.label: AUC(0-t) at 24 h (ng·h/mL)
Give your result in ng·h/mL as a bare value.

Exercise: GET /values?readout=AUC(0-t) at 24 h&item= C[C@@H](c1ccc2ccc(O[C@H]3CC[C@@H](C(F)(F)F)CC3)c(C(F)(F)F)c2c1)N1C2CCC1CC(C(=O)O)C2 (stereo partly specified)
Key: 8840

====

Exercise: state measured Kp at 4 h for each of the molecules provided.
experiment: Total brain to plasma concentration ratio in rat at 10 mg/kg, po measured after 4 hrs; format: ADME, organism-based; details: brain and plasma, read-out: BPR
Output: the number by itself.

Exercise: GET /values?readout=Kp at 4 h&item= C[C@@H](c1ccc2ccc(O[C@H]3CC[C@@H](C(F)(F)F)CC3)c(C(F)(F)F)c2c1)N1C2CCC1CC(C(=O)O)C2 (some centres not stated)
Key: 0.2

Exercise: Same lookup for C[C@@H](c1ccc2ccc(O[C@H]3CC[C@@H](C)CC3)c(C(F)(F)F)c2c1)N1C2CCC1CC(C(=O)O)C2 (some centres not stated) , please.
Key: 0.8

====

experiment: Half life in rat at 1.0 mg/kg, iv; format: ADME, organism-based; conditions: in vivo
endpoint.label: half-life (h)
Give your result in h as a bare value.

Exercise: GET /values?readout=half-life&item= C[C@@H](c1ccc2ccc(O[C@H]3CC[C@@H](C(F)(F)F)CC3)c(C(F)(F)F)c2c1)N1C2CCC1CC(C(=O)O)C2 (stereo partly specified)
Key: 3

====

assay: AUC (0 to 24 hrs) in cynomolgus monkey at 0.2 mg/kg, iv; type: ADME, organism-based, Macaca fascicularis; design: time < 24 hr, route intravenous, dose 0.2 mg/kg; details: in vivo
endpoint.label: AUC(0-t) at 24 h (ng·h/mL)
Give your result in ng·h/mL as a bare value.

Exercise: GET /values?readout=AUC(0-t) at 24 h&item= C[C@@H](c1ccc2ccc(O[C@H]3CC[C@@H](C(F)(F)F)CC3)c(C(F)(F)F)c2c1)N1C2CCC1CC(C(=O)O)C2 (stereo partly specified)
Key: 369

====

assay: Clearance in rat at 10 mg/kg, po; type: ADME, organism-based; conditions: in vivo
endpoint.label: CL/F (mL/min/kg)
Give your result in mL/min/kg as a bare value.

Exercise: GET /values?readout=CL/F&item= C[C@@H](c1ccc2ccc(O[C@H]3CC[C@@H](C)CC3)c(C(F)(F)F)c2c1)N1C2CCC1CC(C(=O)O)C2 (stereo partly specified)
Key: 94

====

assay: Cmax in rat at 10 mg/kg, po; format: ADME, organism-based; design: route oral, dose 10 mg/kg; conditions: in vivo
endpoint.label: Cmax

Exercise: GET /values?readout=Cmax&item= C[C@@H](c1ccc2ccc(O[C@H]3CC[C@@H](C(F)(F)F)CC3)c(C(F)(F)F)c2c1)N1C2CCC1CC(C(=O)O)C2 (stereo partly specified)
Key: 813 ng/mL

====

biological target: Sphingosine 1-phosphate receptor 5 (Homo sapiens)
Sequence (Q9H228 whole entry): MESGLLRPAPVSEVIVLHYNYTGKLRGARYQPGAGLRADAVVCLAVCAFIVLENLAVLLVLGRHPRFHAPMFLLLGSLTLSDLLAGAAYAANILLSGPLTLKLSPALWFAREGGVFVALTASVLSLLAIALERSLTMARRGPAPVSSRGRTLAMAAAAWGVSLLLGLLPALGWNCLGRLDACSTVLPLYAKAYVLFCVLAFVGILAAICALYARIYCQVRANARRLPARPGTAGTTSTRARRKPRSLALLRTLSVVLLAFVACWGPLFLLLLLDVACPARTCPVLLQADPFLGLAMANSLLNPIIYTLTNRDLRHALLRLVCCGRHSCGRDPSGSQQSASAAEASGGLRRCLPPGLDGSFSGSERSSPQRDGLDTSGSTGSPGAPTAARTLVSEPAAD
pIC50: −log10 of the molar value.
endpoint.label: pIC50

Exercise: Give pIC50 (Sphingosine 1-phosphate receptor 5 (Homo sapiens)) of the following compound: C[C@@H](c1ccc2ccc(O[C@H]3CC[C@@H](C(F)(F)F)CC3)c(C(F)(F)F)c2c1)N1C2CCC1CC(C(=O)O)C2 (stereo partly specified)
Key: < 5.00

====

assay: Drug concentration in Sprague-Dawley rat at 10 mg/kg, po after 6 hrs by LC-MS/MS analysis; format: ADME, organism-based; conditions: in vivo, read-out: Drug uptake
endpoint.label: concentration at 6 h (ng/mL)
Give your result in ng/mL as a bare value.

Exercise: GET /values?readout=concentration at 6 h&item= C[C@@H](c1ccc2ccc(O[C@H]3CC[C@@H](C(F)(F)F)CC3)c(C(F)(F)F)c2c1)N1C2CCC1CC(C(=O)O)C2 (stereo partly specified)
Key: 188

====

assay: Apparent permeability across basolateral to apical side in human Caco-2 cells incubated for 120 mins by lucifer yellow based LC-MS/MS analysis
endpoint.label: Papp B→A at 2 h (×10⁻⁶ cm/s)
Give your result in ×10⁻⁶ cm/s as a bare value.

Exercise: GET /values?readout=Papp B→A at 2 h&item= C[C@@H](c1ccc2ccc(O[C@H]3CC[C@@H](C(F)(F)F)CC3)c(C(F)(F)F)c2c1)N1C2CCC1CC(C(=O)O)C2 (stereo partly specified)
Key: 40.3

====

experiment: Volume of distribution at steady state in C57BL/6 mouse plasma at 2.32 mg/kg; format: ADME, organism-based; conditions: read-out: Vdss
endpoint.label: Vd (L/kg)
Give your result in L/kg as a bare value.

Exercise: GET /values?readout=Vd&item= C[C@@H](c1ccc2ccc(O[C@H]3CC[C@@H](C(F)(F)F)CC3)c(C(F)(F)F)c2c1)N1C2CCC1CC(C(=O)O)C2 (stereo partly specified)
Key: 2.36

====

Exercise: state measured concentration at 4 h for each of the compounds provided.
assay: Drug concentration in rat brain at 10 mg/kg, po after 4 hrs; type: ADME, organism-based; conditions: read-out: Ct
Give your result in ng/mL as a bare value.

Exercise: GET /values?readout=concentration at 4 h&item= C[C@@H](c1ccc2ccc(O[C@H]3CC[C@@H](C)CC3)c(C(F)(F)F)c2c1)N1C2CCC1CC(C(=O)O)C2 (some centres not stated)
Key: 103

Exercise: Same lookup for C[C@@H](c1ccc2ccc(O[C@H]3CC[C@@H](C(F)(F)F)CC3)c(C(F)(F)F)c2c1)N1C2CCC1CC(C(=O)O)C2 (some centres not stated) , please.
Key: 97

====

Let's go through some recorded pIC50 values for Autotaxin (Homo sapiens, UniProt Q13822) together.
# log scale: pIC50 equals minus log10 of the concentration in mol/L

Exercise: Give pIC50 (Autotaxin (Homo sapiens, UniProt Q13822)) of the following molecule: C[C@H](c1ccc2ccc(O[C@H]3CC[C@@H](C)CC3)c(C(F)(F)F)c2c1)N1C2CCCC1CC(C(=O)O)C2 (stereo not given in full)
Key: 6.48

Exercise: Same lookup for O=C(O)C1CCN(Cc2ccc3c(C(F)(F)F)c(O[C@H]4CC[C@@H](C(F)(F)F)CC4)ccc3c2)CC1 , please.
Key: 6.43

Exercise: Same lookup for C[C@@H](c1ccc2ccc(O[C@H]3CC[C@@H](C)CC3)c(C(F)(F)F)c2c1)N1C2CCCC1CC(C(=O)O)C2 (stereo not given in full) , please.
Key: 8.44

Exercise: Same lookup for C[C@H]1CC[C@@H](Oc2ccc3ccc(CN4C5CCC4CC(C(=O)O)C5)cc3c2C(F)(F)F)CC1 (stereo not given in full) , please.
Key: 7.00

Exercise: Same lookup for C[C@H]1CC[C@@H](Oc2ccc3cc(CN4C5CCCC4CC(C(=O)O)C5)ccc3c2C(F)(F)F)CC1 (stereo not given in full) , please.
Key: 7.42

Exercise: Same lookup for O=C(NCCCP(=O)(O)O)c1ccc2c(C(F)(F)F)c(O[C@H]3CC[C@@H](C(F)(F)F)CC3)ccc2c1 , please.
Key: 7.55

Exercise: Same lookup for O=C(O)CCCNC(=O)c1ccc2c(C(F)(F)F)c(O[C@H]3CC[C@@H](C(F)(F)F)CC3)ccc2c1 , please.
Key: 5.43

Exercise: Same lookup for O=C(O)CCCNCc1ccc2c(C(F)(F)F)c(O[C@H]3CC[C@@H](C(F)(F)F)CC3)ccc2c1 , please.
Key: 5.89

Exercise: Same lookup for C[C@H]1CC[C@@H](Oc2ccc3ccc(CN4C5CCCC4CC(C(=O)O)C5)cc3c2C(F)(F)F)CC1 (stereo not given in full) , please.
Key: 8.09

Exercise: Same lookup for C[C@@H](c1ccc2ccc(O[C@H]3CC[C@@H](C(F)(F)F)CC3)c(C(F)(F)F)c2c1)N1C2CCC1CC(C(=O)O)C2 (stereo not given in full) , please.
Key: 9.00
